TESTED_SYSTEM: KGA_ H519Q/D520K (Homo sapiens, UniProt O94925, D520K/H519Q)
Construct: a KGA cDNA fragment of 1644 bp (residues Leu123-Leu669); His-tag (N)
ASSAY_NOTES: Glutaminase activity assay, KGA mutant H519Q/D520K
Method: Human glutaminase activity was measured using a two-step assay as described previously. A microtiter assay format was used to facilitate the collection of multiple data points. […] The absorbance at 340 nm was measured using a Wallac Victor2V plate reader (PerkinElmer), fitted with a 340 nm excitation filter. Sample absorbance was measured against a blank, containing no human glutaminase. […]
PARAMETER_MEASURED: pIC50
Answers are plain numbers, as −log10 of the molar value.

Find the measured pIC50 of CCCCCCCCCCCCCC(CC1=CC(=O)C=C(OC)C1=O)OC(C)=O (stereo not shown) and report it.
6.64

###

TESTED_SYSTEM: KGA_Y394L (Homo sapiens, UniProt O94925, Y394L)
Construct: a KGA cDNA fragment of 1644 bp (residues Leu123-Leu669); His-tag (N)
Sequence (O94925 123-669 Y394L): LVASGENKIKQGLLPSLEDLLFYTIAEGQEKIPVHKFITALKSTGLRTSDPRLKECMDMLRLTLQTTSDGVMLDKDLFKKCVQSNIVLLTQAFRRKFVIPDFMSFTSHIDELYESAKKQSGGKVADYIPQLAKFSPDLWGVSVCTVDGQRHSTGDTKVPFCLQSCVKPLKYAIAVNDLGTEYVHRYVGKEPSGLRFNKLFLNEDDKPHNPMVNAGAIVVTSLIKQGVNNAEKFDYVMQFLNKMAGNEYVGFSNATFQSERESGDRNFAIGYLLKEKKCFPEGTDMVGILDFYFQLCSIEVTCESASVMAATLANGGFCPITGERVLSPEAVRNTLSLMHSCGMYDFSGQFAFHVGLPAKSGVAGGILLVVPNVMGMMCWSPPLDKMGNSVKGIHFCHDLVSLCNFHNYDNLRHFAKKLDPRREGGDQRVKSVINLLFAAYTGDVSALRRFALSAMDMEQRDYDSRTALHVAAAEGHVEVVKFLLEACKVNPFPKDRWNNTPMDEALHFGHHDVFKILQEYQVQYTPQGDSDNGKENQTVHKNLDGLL
ASSAY_NOTES: Glutaminase activity assay, KGA mutant Y394L
PARAMETER_MEASURED: pIC50
Numbers only, as −log10 of the molar value.

Find the measured pIC50 of CCCCCCCCCCCCCC(CC1=CC(=O)C=C(OC)C1=O)OC(C)=O (stereo not shown) and report it.
5.85

###

ASSAY_NOTES: in vitro
RUN_PARAMETERS: human
PARAMETER_MEASURED: CC50

Find the measured CC50 of CCCCCCCCCCCCCC1=C(O)C(=O)C=C(OC)C1=O and report it.
> 50 µM

###

I'd appreciate it if you could supply IC50 values for the items below.
TESTED_SYSTEM: human GAB (Homo sapiens, UniProt Q9UI32)
Construct: Equivalent construct of GAB (Pro56-Val602) was amplified from the cDNA clone; His-tag (N)
Sequence (Q9UI32 56-602): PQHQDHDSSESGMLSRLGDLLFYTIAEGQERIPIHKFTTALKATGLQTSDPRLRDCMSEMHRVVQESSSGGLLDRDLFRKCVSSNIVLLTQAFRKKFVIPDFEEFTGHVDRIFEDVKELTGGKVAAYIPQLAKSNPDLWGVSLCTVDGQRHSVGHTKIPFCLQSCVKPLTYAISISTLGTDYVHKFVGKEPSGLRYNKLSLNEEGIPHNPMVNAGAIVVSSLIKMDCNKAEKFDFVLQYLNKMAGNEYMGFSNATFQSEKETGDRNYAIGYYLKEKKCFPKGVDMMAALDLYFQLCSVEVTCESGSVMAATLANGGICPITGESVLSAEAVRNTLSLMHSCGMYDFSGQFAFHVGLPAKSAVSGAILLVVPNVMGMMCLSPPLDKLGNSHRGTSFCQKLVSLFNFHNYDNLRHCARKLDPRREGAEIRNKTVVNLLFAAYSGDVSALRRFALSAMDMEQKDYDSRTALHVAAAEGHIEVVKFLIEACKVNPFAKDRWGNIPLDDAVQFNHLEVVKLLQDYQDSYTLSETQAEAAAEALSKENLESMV
ASSAY_NOTES: Two-step glutaminase activity assay, purified recombinant GAB
RUN_PARAMETERS: recombinant wild-type GAB, absence of phosphate
One number for each entry, in µM.

CCCCCCCCCCCCCC(Cc1cc(OC(C)=O)cc(OC)c1O)OC(C)=O (centres unmarked) [AV-11]
5.7

Hi! Can you tell me IC50 for each of these molecules?
1. Cc1c(O)cc(CCCCC/C=C\CCCCCCCc2cc(O)c(C)c(O)c2)cc1O [AK-8]
2. CCCCCCCC/C=C\CCCCCCCc1cc(O)cc(O)c1 [AK-1]

[3.1, 2.9]

Hi! Can you tell me IC50 for each of these molecules?
1. Cc1c(O)cc(CCCCCCC/C=C\CCCCCCCc2cc(O)cc(O)c2)cc1O [AK-9]
2. COc1cc(O)cc(CCCCCCC/C=C\CCCCCCCc2cc(O)cc(O)c2)c1 [AK-11]
3. Cc1c(O)cc(CCCCCCC/C=C\CCCCCc2cc(O)cc(O)c2)cc1O [AK-10]
4. CCCCCCCCCCCCCC(=O)Cc1cc(O)cc(OC)c1OC(C)=O [AV-14]
5. COc1cc(O)cc(CCCCCCC/C=C\CCCCCCCc2cc(O)c(C)c(O)c2)c1 [AK-5]
6. CCCCCCCCCCCCCC(O)Cc1cc(O)cc(OC)c1 (centres unmarked) [AV-12]

1. 2.3
2. 2.9
3. 2.1
4. 4.7
5. 2.3
6. 7.6

Hi! Can you tell me IC50 for each of these molecules?
1. CCCCCCCCCCCCCC(CC1=C(O)C(=O)C=C(OC)C1=O)OC(C)=O (centres unmarked) [AV-3]
2. CCCCCCCCCCCC(Cc1c(O)c(OC)cc(O)c1C=O)OC(C)=O (centres unmarked) [AV-10]

1: 25.1; 2: 23.1

###

ASSAY_NOTES: Carcinoma cell growth inhibition (cytotoxicity), A549
RUN_PARAMETERS: human, A549 lung carcinoma cells
PARAMETER_MEASURED: CC50

Known results for compounds:
CCCCCCCCCCCC(CC1=C(O)C(=O)C=C(OC)C1=O)OC(C)=O (stereo not drawn) [AV-4]
> 50 µM
CCCCCCCCCCCCCC(O)Cc1cc(O)cc(OC)c1 (stereo not drawn) [AV-12]
> 50 µM
CCCCCCCCCCCCCC(=O)Cc1cc(O)cc(OC)c1OC(C)=O [AV-14]
> 50 µM
COc1cc(O)cc(CCCCCCC/C=C\CCCCCc2cc(O)cc(O)c2)c1 [AK-12]
> 100 µM
CCCCCCCCCCCCCC(CC1=C(O)C(=O)C=C(OC)C1=O)OC(C)=O (stereo not drawn) [AV-3]
> 50 µM

Find the measured CC50 of Cc1c(O)cc(CCCCCCC/C=C\CCCCCCCc2cc(O)c(C)c(O)c2)cc1O [AK-7] and report it.
> 100 µM
